# study.system: Bifunctional epoxide hydrolase 2 (Homo sapiens) (UniProt P34913)
# Sequence (P34913 whole entry, looked up): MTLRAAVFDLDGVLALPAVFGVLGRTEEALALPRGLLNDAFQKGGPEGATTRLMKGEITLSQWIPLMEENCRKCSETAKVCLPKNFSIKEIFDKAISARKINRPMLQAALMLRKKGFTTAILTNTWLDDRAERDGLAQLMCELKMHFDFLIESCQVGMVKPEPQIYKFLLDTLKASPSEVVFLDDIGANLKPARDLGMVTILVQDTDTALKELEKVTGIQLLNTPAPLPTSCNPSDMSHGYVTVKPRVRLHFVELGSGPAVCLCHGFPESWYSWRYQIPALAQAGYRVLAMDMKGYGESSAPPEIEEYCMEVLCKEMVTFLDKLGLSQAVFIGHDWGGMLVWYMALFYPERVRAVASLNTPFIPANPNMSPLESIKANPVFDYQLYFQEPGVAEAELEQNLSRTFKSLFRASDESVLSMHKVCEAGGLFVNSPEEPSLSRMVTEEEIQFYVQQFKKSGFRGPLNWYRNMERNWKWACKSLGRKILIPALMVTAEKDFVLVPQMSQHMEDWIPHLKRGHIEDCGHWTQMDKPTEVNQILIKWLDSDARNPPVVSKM
# protocol.text: sEH inhibitor concentration-response potency, dose response, biochemical, human sEH, fluorescence, Infinite200 (AID 1026)
# condition.notes: recombinant human sEH, fluorogenic substrate, at 0.2 µM, active compounds read high
# key: entry, value: inhibition
Hi! Could you send only the number? It should be in %, unit omitted.

Check out these entries, answers already filled in.
O=C(N/N=C/c1ccc(O)cc1)c1csc2ccccc12: 54.5
O=C(NCCSCc1ccco1)Nc1cccc(Cl)c1: 46.2
Cc1ccccc1-c1nc(CN2CCC(C(=O)NCCC3=CCCCC3)CC2)c(C)o1: 55.6

Enquiry: I am curious: what inhibition value has been reported for C/C(=N\NC(=O)c1cccc(S(=O)(=O)Nc2ccccc2Cl)c1)c1ccc(-n2ccnc2)cc1 ?
Return: 56
